Each entry below carries its recorded IC50.
Target: Akt3 (Homo sapiens)
Construct: unspecified tag, removed (detagged) (cleaved yes); purchased SignalChem and Proteros (Akt3); Merck Millipore (PDK1) 14-452 (PDK1); none given for Akt3
Sequence (Q9Y243 whole entry): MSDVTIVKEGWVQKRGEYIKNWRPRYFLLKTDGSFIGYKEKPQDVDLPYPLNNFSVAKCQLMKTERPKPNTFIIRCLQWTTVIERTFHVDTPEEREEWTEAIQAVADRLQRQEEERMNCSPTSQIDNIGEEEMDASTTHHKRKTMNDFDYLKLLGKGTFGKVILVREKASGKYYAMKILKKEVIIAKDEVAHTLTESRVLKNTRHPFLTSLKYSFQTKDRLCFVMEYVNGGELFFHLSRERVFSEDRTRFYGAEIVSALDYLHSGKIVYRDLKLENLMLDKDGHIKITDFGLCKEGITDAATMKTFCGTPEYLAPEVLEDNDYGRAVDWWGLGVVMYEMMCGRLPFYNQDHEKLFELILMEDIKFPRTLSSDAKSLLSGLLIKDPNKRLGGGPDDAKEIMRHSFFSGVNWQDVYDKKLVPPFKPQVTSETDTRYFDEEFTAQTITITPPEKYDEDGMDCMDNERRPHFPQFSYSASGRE
Assay: Akt activation assay (PDK1-mediated activation, LANCE Ultra crosstide TR-FRET), Akt3
Type: biochemical
Conditions: read-out: Biological Assay 1 IC50 (nM) Akt3

{"Structure as smiles": "CN([C@H]1CC[C@H](CC(=O)Nc2cnc(-c3ccc(C(C)(C)N)cc3)c(-c3ccccc3F)c2)CC1)S(C)(=O)=O", "IC50, nM": 740}
{"Structure as smiles": "CC(C)(C)CC(=O)N[C@H]1CC[C@H](CC(=O)Nc2cnc(-c3ccc(C(C)(C)N)cc3)c(-c3ccccc3)c2)CC1", "IC50, nM": 61}
{"Structure as smiles": "CCC(=O)N(C)[C@H]1CC[C@H](CC(=O)Nc2cc(-c3ccsc3)c(-c3ccc(C(C)(C)N)cc3)nn2)CC1", "IC50, nM": 64}
{"Structure as smiles": "CCC(=O)N(C)[C@H]1CC[C@H](CC(=O)Nc2cc(-c3ccccc3)c(-c3ccc([C@]4(N)C[C@](C)(O)C4)cc3)cn2)CC1", "IC50, nM": 6}
{"Structure as smiles": "CC(=O)N(C)[C@H]1CC[C@H](CC(=O)Nc2cc(-c3ccccc3)c(-c3ccc(C(C)(C)N)cc3)nn2)CC1", "IC50, nM": 470}
{"Structure as smiles": "CC(=O)N(C)[C@H]1CC[C@H](CC(=O)Nc2cc(-c3ccccc3)c(-c3ccc(C4(N)CC4)c(F)c3)nn2)CC1", "IC50, nM": 160}
